Reference source: the RepoRT retention time repository

- method_description: Waters SunFire C18, 150 × 2.1 mm, 3.5 µm, 25 °C, 0.25 mL/min, estimated dead time 1.3 min; A: water + 0.1% formic acid; B: methanol; gradient (min/%B) 0/5 30/100
- stated_conditions: stereoisomer not certain
property_label: LC retention time

Prompt: Please indicate LC retention time recorded for COC(=O)C1C(O)CCC2CN3CCc4c([nH]c5ccc(C)cc45)C3CC21 (stereo not drawn)
Response: 28.8 min

Prompt: Please indicate LC retention time recorded for CCC12CC(C(=O)OC)=C3Nc4ccccc4C34CCN(C(c3ccc5c(c3)C3CCN6CC7OC7C7(CC)CCC3(N5)C67)C3OC31)C42 (stereo not drawn)
Response: 16 min

---

- method_description: Waters SunFire C18, 150 × 2.1 mm, 3.5 µm, 25 °C, 0.25 mL/min, estimated dead time 1.3 min; A: water + 0.1% formic acid; B: methanol; gradient (min/%B) 0/5 30/100
- stated_conditions: stereoisomer not certain
property_label: LC retention time (min)
State just the number; it will be interpreted in min.

- molecule: "CCC1CN(C)CC2(C(=O)OC)Cc3c([nH]c4ccccc34)C(=O)CC12 (configuration not stated)"
  LC retention time (min): 15

Prompt: Please indicate LC retention time recorded for COC(=O)C1CC23CCCN4CCC5(c6ccccc6N(C)C15CC2)C43 (configuration not stated)
Response: 17.2

Prompt: Please indicate LC retention time recorded for CCC1CC2CC3c4[nH]c5ccccc5c4CCN(C2)C13 (configuration not stated)
Response: 15.3

Prompt: Please indicate LC retention time recorded for CCC1CC2CN3CCc4c([nH]c5ccc(OC)cc45)C(C(=O)OC)(C2)C13 (configuration not stated)
Response: 16.8

Prompt: Please indicate LC retention time recorded for CC=C1CN2CCC3(O)c4ccccc4N4C=C(C(=O)OC)C1CC2C43O (configuration not stated)
Response: 16.5

Prompt: Please indicate LC retention time recorded for CC=C1CN2C3CC45c6ccccc6NC4(O3)C2CC1C5(COC(C)=O)C(=O)OC (configuration not stated)
Response: 17.3

Prompt: Please indicate LC retention time recorded for CC=C1CN(C)C2Cc3c([nH]c4ccccc34)C(c3ccc4c5c([nH]c4c3)C3CC4CC(CC)C3N(CC5)C4)CC1C2C(=O)OC (configuration not stated)
Response: 15.3

Prompt: Please indicate LC retention time recorded for CCC12CCCN3CCc4c(n(c5ccccc45)C(c4ccc5c(c4)C46CCN7CCCC8(CCC4(C(C(=O)OC)C8)N5C)C76)C1)C32 (configuration not stated)
Response: 18.7

Prompt: Please indicate LC retention time recorded for COC(=O)C1CC23CCCN4C(=O)CC5(c6ccccc6N(C)C15CC2)C43 (configuration not stated)
Response: 15.1

Prompt: Please indicate LC retention time recorded for CCC1=C(CC(=O)OC)C(OC)(c2nccc3c2[nH]c2ccccc23)OC1=O (configuration not stated)
Response: 27

Prompt: Please indicate LC retention time recorded for CCC1CC2CC3c4[nH]c5cc(OC)ccc5c4CCN(C2)C13 (configuration not stated)
Response: 18.6

Prompt: Please indicate LC retention time recorded for CC=C1CN2C3CC1C1(C(=O)OC)C2CC2(c4ccccc4N(C)C32)C1O (configuration not stated)
Response: 12

Prompt: Please indicate LC retention time recorded for CCC1=CC2CN3CCc4c([nH]c5ccccc45)C(C(=O)OC)(C2)C13 (configuration not stated)
Response: 16.1

---

- method_description: Waters SunFire C18, 150 × 2.1 mm, 3.5 µm, 25 °C, 0.25 mL/min, estimated dead time 1.3 min; A: water + 0.1% formic acid; B: methanol; gradient (min/%B) 0/5 30/100
- stated_conditions: stereoisomer not certain
Listing: LC retention time of selected molecules
State just the number; it will be interpreted in min.

Prompt: Please indicate LC retention time recorded for CCC1CN(C)C2Cc3c([nH]c4ccccc34)C(O)(c3cc4c5c([nH]c4cc3OC)C3(C(=O)OC)CC4CC(CC)C3N(CC5)C4)CC1C2C(=O)OC (stereo unspecified)
Response: 16.3

Prompt: Please indicate LC retention time recorded for CN1CCC23C(=O)CC4C(=CCOC5CC(=O)N(c6c(O)cccc62)C3C54)C1 (stereo unspecified)
Response: 13.4

---

- method_description: Waters SunFire C18, 150 × 2.1 mm, 3.5 µm, 25 °C, 0.25 mL/min, estimated dead time 1.3 min; A: water + 0.1% formic acid; B: methanol; gradient (min/%B) 0/5 30/100
- stated_conditions: stereoisomer not certain
property_label: LC retention time (min)
State just the number; it will be interpreted in min.

Worked set:
- compound: "CC=C1C[n+]2ccc3c([nH]c4ccccc43)c2CC1C1=CN2c3ccccc3C34CCN5CC(=CC)C(CC53)C(C1O)C24 (stereo not drawn)"
  unit_text: "min"
  LC retention time: 15.2
- compound: "CC=C1CN2CCC34CN5c6c(cccc6C36C2CC1C(C(=O)OC)N6c1ccccc14)C12CCN3CCCC4(CCC51C4C)C32 (stereo not drawn)"
  unit_text: "min"
  LC retention time: 15
- compound: "O=C1CC2OCC=C3CN4CCC56c7ccccc7N1C5C2C3CC46 (stereo not drawn)"
  unit_text: "min"
  LC retention time: 11
- compound: "CC=C1CN2CCC34C(=O)c5cc6c(cc5OC35C2CC1C(C(=O)OC)N5c1ccccc14)NC12CCC3(CC)CCC[N+]1(CCC62O)C3 (stereo not drawn)"
  unit_text: "min"
  LC retention time: 13.8
- compound: "COC(=O)C1CC23CCC[N+]4([O-])CCC5(c6ccccc6N(C(=O)OC)C15CC2)C34 (stereo not drawn)"
  unit_text: "min"
  LC retention time: 17.2
- compound: "CC=C1CN(C)CC2(C(=O)OC)Cc3c([nH]c4ccccc34)C(=O)CC12 (stereo not drawn)"
  unit_text: "min"
  LC retention time: 14.3
- compound: "CCC1CN2CCC34c5ccccc5NC3C(CO)C1CC24 (stereo not drawn)"
  unit_text: "min"
  LC retention time: 10.4

Now examine the next entry.
Prompt: Please indicate LC retention time recorded for COC(=O)N1c2ccccc2C23CCN4C(=O)C=CC45CCC12C(C5)C(=O)O3 (stereo not drawn)
Response: 24.1

---

- method_description: Waters SunFire C18, 150 × 2.1 mm, 3.5 µm, 25 °C, 0.25 mL/min, estimated dead time 1.3 min; A: water + 0.1% formic acid; B: methanol; gradient (min/%B) 0/5 30/100
- stated_conditions: stereoisomer not certain
Listing: LC retention time of selected compounds

- compound: "CC=C1CN2CCC34c5cc(O)ccc5N(C)C35OCC4(C(=O)OC)C1CC25 (stereo not drawn)"
  LC retention time: "14.3 min"
- compound: "CC=C1CN2C3CC1C(C1OCC4C5CC6N(CCC67c6ccccc6N1C47)CC5CC)C2Cc1c3[nH]c2ccccc12 (stereo not drawn)"
  LC retention time: "13.8 min"
- compound: "C=CC1CN2CCC3(C(=O)Nc4cc(O)ccc43)C2CC1CC1c2[nH]c3ccccc3c2CCN1C (stereo not drawn)"
  LC retention time: "11.9 min"
- compound: "C=CC1CN2CCc3c([nH]c4ccc(O)cc34)C2CC1CC1c2[nH]c3ccccc3c2CCN1C (stereo not drawn)"
  LC retention time: "13.6 min"
- compound: "COC(=O)C1=COC(C)C2Cn3ccc4c5ccccc5nc-4c3CC12 (stereo not drawn)"
  LC retention time: "13.2 min"

Prompt: Please indicate LC retention time recorded for CCC1=C(CC(=O)OC)C(O)(c2nccc3c2[nH]c2ccccc23)OC1=O (stereo not drawn)
Response: 23.2 min

Prompt: Please indicate LC retention time recorded for CC=C1CN2CCC34c5ccccc5N5C(=O)C(C6CC78c9ccccc9N9C(=O)C=CC(C%10CC7N6CC%10=CC)C98)=CC(C1CC23)C54 (stereo not drawn)
Response: 15.3 min

Prompt: Please indicate LC retention time recorded for COc1cc2c(cc1OC)C13CCN4CC5=CCOC6CC(=O)N2C1C6C5CC43 (stereo not drawn)
Response: 12.9 min

---

Listing: LC retention time of selected compounds
- method_description: Waters SunFire C18, 150 × 2.1 mm, 3.5 µm, 25 °C, 0.25 mL/min, estimated dead time 1.3 min; A: water + 0.1% formic acid; B: methanol; gradient (min/%B) 0/5 30/100
- stated_conditions: stereoisomer not certain
State just the number; it will be interpreted in min.

Worked set:
- compound: "COC(=O)C1C(O)CCC2CN3CCc4c([nH]c5cc(OC)ccc45)C3CC21 (stereo unspecified)"
  LC retention time, min: 14.1
- compound: "C=Cc1cncc2c(=O)n3c(cc12)-c1[nH]c2ccccc2c1CC3"
  LC retention time, min: 18.3
- compound: "CC=C1CN(C)CC2Cc3c([nH]c4ccccc34)C(=O)CC12 (stereo unspecified)"
  LC retention time, min: 14.3
- compound: "CC=C1CN2C(C3C(=O)N4c5ccccc5C56CCN7CC8=CCOC3C(C8CC75)C46)CC34c5ccccc5N5C(=O)C=CC(C1CC23)C54 (stereo unspecified)"
  LC retention time, min: 16.3
- compound: "CCC1=CN2CCC3=c4ccccc4=NC3=C2C=C1"
  LC retention time, min: 14.4
- compound: "CC=C1C[N+]2([O-])CCC34Cc5cc6c(cc5OC35C2CC1C(C(=O)OC)N5c1ccccc14)NC12CCC3(CC)CCC[N+]1(CCC62O)C3 (stereo unspecified)"
  LC retention time, min: 13.4
- compound: "CN1CCC23C(=O)CC4C(=CCOC5CC(=O)N(c6ccccc62)C3C54)C1 (stereo unspecified)"
  LC retention time, min: 13.6
- compound: "CC=C1CN2CCc3c4n(c5ccccc35)C(C(=O)OC)C1CC42 (stereo unspecified)"
  LC retention time, min: 17.5
- compound: "CCC12CC34CC(C(=O)OC)=C5Nc6ccccc6C56CCN3C1C1CC3(CC)C5OC5CN5CCC7(c8ccccc8N(C64)C17O2)C53 (stereo unspecified)"
  LC retention time, min: 25.8
- compound: "C=C1c2[nH]c3ccccc3c2CN2CCC1C(=CC)C2 (stereo unspecified)"
  LC retention time, min: 9.26

Prompt: Please indicate LC retention time recorded for CC=C1C[N+]2(C)CCc3c([nH]c4ccccc34)C2CC1Cc1nccc2c1[nH]c1ccccc12 (stereo unspecified)
Response: 15.5

Prompt: Please indicate LC retention time recorded for CC=C1CN2CCc3c([nH]c4ccccc34)C2CC1Cc1nccc2c1[nH]c1ccc(O)cc12 (stereo unspecified)
Response: 16.6

Prompt: Please indicate LC retention time recorded for CC=C1C[n+]2ccc3c([nH]c4ccccc43)c2CC1CCO (stereo unspecified)
Response: 16.7

Prompt: Please indicate LC retention time recorded for CCC1CN(C)C2Cc3c([nH]c4ccccc34)C(c3c(OC)ccc4c5c([nH]c34)C3([C-]=[O+]OC)CC4CC(CC)C3N(CC5)C4O)CC1C2C(=O)OC (stereo unspecified)
Response: 15.1

Prompt: Please indicate LC retention time recorded for C=CC1CN2CCc3c([nH]c4cc(O)ccc34)C2CC1CC1c2[nH]c3ccccc3c2CCN1C (stereo unspecified)
Response: 13.3

Prompt: Please indicate LC retention time recorded for CC=C1C2CC[N+]3([O-])CCC4(C(=C2C(=O)OC)Nc2ccccc24)C13 (stereo unspecified)
Response: 15.3

Prompt: Please indicate LC retention time recorded for CC=C1C[N+]2(C)CCC34c5ccccc5NC32C(O)CC1C4(CO)C(=O)OC (stereo unspecified)
Response: 13.4

Prompt: Please indicate LC retention time recorded for CC=C1CN2C3CC1C(CO)(C(=O)OC)C2Cc1c3[nH]c2ccccc12 (stereo unspecified)
Response: 12.9

Prompt: Please indicate LC retention time recorded for CC=C1CN2C3CC1C(C(=O)OC)C2Cc1c3[nH]c2ccccc12 (stereo unspecified)
Response: 16.2

Prompt: Please indicate LC retention time recorded for CCC12CCCN(CCc3c([nH]c4ccccc34)CC1)C2 (stereo unspecified)
Response: 15.1

Prompt: Please indicate LC retention time recorded for O=C1CC=C2C3CC4N(CCC45c4ccccc4N1C25)CC3=CCO (stereo unspecified)
Response: 12.1

Prompt: Please indicate LC retention time recorded for CC=C1CN(C)CCC23C(=O)CC1C1COC(O)C(=O)N(c4ccccc42)C13 (stereo unspecified)
Response: 12.1

Prompt: Please indicate LC retention time recorded for CC=C1CN2C3CC1C1(C(=O)OC)C2CC2(c4cc(O)ccc4N(C)C32)C1OC(=O)c1cc(OC)c(OC)c(OC)c1 (stereo unspecified)
Response: 15.8
